# System: 2N9 control antibody
# Format: binding
The substances listed here are annotated with their Binding activity to truncated M2 peptides, ELISA absorbance at 450 nm, 2N9.
Write the number on its own, no unit after it.

// known answers, use as guide
> print(dat)
                       substance  recordedresult
 1             SLLTEVETPI [NM10]            0.10
 2          RNEWGCRCNDSSD [CM13]            0.13
 3            SLLTEVETPIR [NM11]            0.12
 4  SLLTEVETPIRNEWGCRCNDSSD [M2]            0.06
 5           SLLTEVETPIRN [NM12]            0.09
 6           NEWGCRCNDSSD [CM12]            0.14
 7      ETPIRNEWGCRCNDSSD [CM17]            0.11
 8         LTEVETPIRNEWGCR [M15]            0.09
 9               SLLTEVETP [NM9]            0.19
10         SLLTEVETPIRNEW [NM14]            0.09

Entry SLLTEVETPIRNEWG [NM15] ; Binding activity to truncated M2 peptides, ELISA absorbance at 450 nm, 2N9 = 0.11

The substance listed as MSLLTEVETPIRNEWGCRCNDSSD [M2e] shows Binding activity to truncated M2 peptides, ELISA absorbance at 450 nm, 2N9 equal to 0.10

Query VETPIRNEWGCR [M12] yields Binding activity to truncated M2 peptides, ELISA absorbance at 450 nm, 2N9 of 0.09

Record SLLTEVETPIRNEWGC [NM16] . Reported Binding activity to truncated M2 peptides, ELISA absorbance at 450 nm, 2N9: 0.09

The measured Binding activity to truncated M2 peptides, ELISA absorbance at 450 nm, 2N9 associated with TPIRNEWGCRCNDSSD [CM16] reads 0.12

Source: patent US8932597B2
